METHOD_DESCRIPTION: AUC in […] plasma at 25 mg/kg, po measured over 12 hrs by LC-MS/MS analysis
Assay type: ADME, organism-based
Parameters: time < 12 hr, dose 25 mg/kg, route oral
REPORTED_METRIC: AUC at 12 h

| SAMPLE_SMILES | AUC at 12 h |
| --- | --- |
| CC(C)CCn1c(CN2CCN(C(=O)c3ccco3)CC2)nc2c1c(=O)n(C)c(=O)n2C | 122 ng·h/mL |

Moving on to the next molecule.
The recorded AUC at 12 h for entry "CCN(C(=O)CCN1CCN(C(=O)c2ccco2)CC1)c1ccc2c(C)cc(=O)oc2c1" equals 6470 ng·h/mL
